- Target or test system: T1, IL-11 protein (UniProt P20809 22-199, limits assumed)
- T1 construct: also called IL-11 antigen
- T1 sequence (looked up): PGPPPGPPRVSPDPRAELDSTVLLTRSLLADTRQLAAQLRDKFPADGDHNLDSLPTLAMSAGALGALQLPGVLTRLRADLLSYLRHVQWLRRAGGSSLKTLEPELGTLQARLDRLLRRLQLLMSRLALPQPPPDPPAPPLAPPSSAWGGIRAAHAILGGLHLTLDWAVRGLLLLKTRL
- Method notes: SPR (Biacore), antibody captured, 400 nM IL-11 as analyte
Examples of binders with documented koff follow.
Reply numerically in s⁻¹, unit not repeated.

So what's the measured koff for this one? VH2 + VL2-scFv (scFv, V domains shown, Humanized 5-20E11-5F2; CHO supernatant; Called scFv, but heavy and light vectors were co-transfected) VH: QVQLVQSGAEVKKPGASVKVSCKASDYTFTNYWLGWVRQAPGQGLEWIGHIYPGGGYTNYNEKFKGRVTMTADTSTSTVYMELSSLRSEDTAVYFCARVRSGNDALDFWGQGTLVTVSS VL: EIVLTQSPATLSLSPGERATLSCRASESVDEYGISFMNWYQQKPGQAPRLLIYSASNQGSGIPARFSGSGSGTDFTLTISSLEPEDFAVYFCQQSKEVPWTFGGGTKLEIK
0.000812

So what's the measured koff for this one? VH4 + VL2-scFv (scFv, V domains shown, Humanized 5-20E11-5F2; CHO supernatant; Called scFv, but heavy and light vectors were co-transfected) VH: QVQLVQSGAEVKKPGASVKVSCKASDYTFTNYWLGWVRQAPGHGLEWIGHIYPGGGYTNYNEKFKGRATLTADTSTSTVYMELSSLRSEDTAVYFCARVRSGNDALDFWGQGTLVTVSS VL: EIVLTQSPATLSLSPGERATLSCRASESVDEYGISFMNWYQQKPGQAPRLLIYSASNQGSGIPARFSGSGSGTDFTLTISSLEPEDFAVYFCQQSKEVPWTFGGGTKLEIK
0.000614
